Here, each record is paired with measured Ki data.
measurement target: human FAAH (Homo sapiens, UniProt O00519)
Sequence (O00519 1-579): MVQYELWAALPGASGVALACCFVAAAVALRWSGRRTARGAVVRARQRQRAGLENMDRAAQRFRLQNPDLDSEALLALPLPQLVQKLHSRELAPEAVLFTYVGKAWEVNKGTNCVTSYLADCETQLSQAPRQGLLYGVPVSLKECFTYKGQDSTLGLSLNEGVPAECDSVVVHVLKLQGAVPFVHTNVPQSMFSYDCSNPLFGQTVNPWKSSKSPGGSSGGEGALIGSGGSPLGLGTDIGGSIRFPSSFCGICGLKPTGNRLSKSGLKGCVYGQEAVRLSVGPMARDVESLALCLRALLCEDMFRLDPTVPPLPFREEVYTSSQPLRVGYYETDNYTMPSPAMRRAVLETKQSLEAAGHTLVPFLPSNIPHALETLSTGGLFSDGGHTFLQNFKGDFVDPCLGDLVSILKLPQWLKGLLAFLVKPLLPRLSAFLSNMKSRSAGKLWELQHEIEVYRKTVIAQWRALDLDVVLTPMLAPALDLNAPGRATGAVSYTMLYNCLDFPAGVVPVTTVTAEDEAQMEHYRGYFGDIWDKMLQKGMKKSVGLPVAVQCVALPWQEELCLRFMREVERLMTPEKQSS

Some solved cases for reference:
1) Cn1cc(-c2ccc(OC3=NO[C@]4(CCc5cc(OC(F)(F)F)ccc54)C3)cn2)cn1 [III-70a] :: ≤ 100 nM
2) BrC1=NOC2(CCN(CCc3ccccc3)CC2)C1 [III-29] :: ≤ 100 nM

Attention now shifts to the item below.
Query :: Recorded Ki of BrC1=NOC2(CCCCC2)C1 [III-1] , please.
Result :: ≤ 100 nM

Each recorded value in this set is attributed to patent US8765735B2.
